- Tested on: OVCAR-4 ovarian
- assay.notes: NCI tumour cell line growth inhibition, 48 h
outcome.measure: GI50

Here's what some known entries look like.
Cn1nc(-c2cccs2)cc1/N=C(\N)C(C)(C#N)Cc1ccccc1 (stereo not drawn) = 28.1 µM
O=C([O-])c1ccc2c(c1)-c1nc-2nc2[n-]c(nc3nc(nc4[n-]c(n1)c1ccc(C(=O)[O-])cc41)-c1ccc(C(=O)[O-])cc1-3)c1ccc(C(=O)[O-])cc21.[Gd+3].[K+] = > 46.7 µM

Input line: Name the recorded GI50 for `CC(C)(O)c1coc(S(=O)(=O)/N=C(\O)Nc2c3c(cc4c2CCC4)CCC3)c1` .
Output line: > 100 µM
